Test: Human HepG2 cell viability assay in 384 well format
Assay type: toxicity, cell-based
Design: dose 125 nL, time 70.5 hour; concentration not given beside the values
Settings: HepG2 cells, read-out: Inhibition
Consider the following compounds and their measured cytotoxicity at 70.5 h readings.

>  <compound>
COc1ccc2c(c1)C(C(=O)NCCCN1CCN(C)CC1)CC(=O)N2 (configuration not stated)

>  <unit-descriptor>
%

>  <cytotoxicity at 70.5 h>
-25

$$$$
>  <compound>
CC1Cc2ccccc2N1Cc1occc1C(=O)OCC(N)=O (configuration not stated)

>  <unit-descriptor>
%

>  <cytotoxicity at 70.5 h>
2.01

$$$$
>  <compound>
Cc1c(C(=O)NCCC2CN(C)CCO2)n(C)c2c(C)cccc12 (configuration not stated)

>  <unit-descriptor>
%

>  <cytotoxicity at 70.5 h>
-27

$$$$
>  <compound>
O=C(c1ccc(OCC2CC2)nc1)N1CCCC(n2ccnc2)C1 (configuration not stated)

>  <unit-descriptor>
%

>  <cytotoxicity at 70.5 h>
-14.6

$$$$
>  <compound>
Cc1cc(C)nc(N2CC=C[C@@H]2C(=O)NCc2ccc3c(c2)OCO3)n1

>  <unit-descriptor>
%

>  <cytotoxicity at 70.5 h>
-9.16

$$$$
>  <compound>
CCN(CC)C(=O)Cn1cc(-c2nc(-c3ccccc3C)no2)nn1

>  <unit-descriptor>
%

>  <cytotoxicity at 70.5 h>
-9.94

$$$$
>  <compound>
O=C(Cc1ccsc1)N1C[C@@H]2C[C@@H](c3nnc(C4CC4)o3)O[C@@H]2C1

>  <unit-descriptor>
%

>  <cytotoxicity at 70.5 h>
4.61

$$$$
>  <compound>
COc1ccc(C(=O)N2CCO[C@H]3[C@H](OCC4CC4)CC[C@@H]32)cc1F

>  <unit-descriptor>
%

>  <cytotoxicity at 70.5 h>
-12.7

$$$$
>  <compound>
Cn1ncnc1NS(=O)(=O)c1ccc(F)cc1Cl

>  <unit-descriptor>
%

>  <cytotoxicity at 70.5 h>
-1.04

$$$$
>  <compound>
NS(=O)(=O)CCN1CCN(c2cc(F)ccc2F)CC1

>  <unit-descriptor>
%

>  <cytotoxicity at 70.5 h>
10.3

$$$$
>  <compound>
COc1ccc(C)cc1-n1cnnc1C1CC(=O)N(C)C1 (configuration not stated)

>  <unit-descriptor>
%

>  <cytotoxicity at 70.5 h>
-4.76

$$$$
>  <compound>
Cn1ccc(CN2CCC(CC(=O)NC3CCCC3)CC2)cc1=O

>  <unit-descriptor>
%

>  <cytotoxicity at 70.5 h>
15

$$$$
>  <compound>
CSc1cccc(CN2CCC(CCC(=O)Nc3ccccc3)CC2)c1

>  <unit-descriptor>
%

>  <cytotoxicity at 70.5 h>
-8.78

$$$$
>  <compound>
COc1ccccc1CC(=O)N1CCC(NCc2ccccn2)CC1

>  <unit-descriptor>
%

>  <cytotoxicity at 70.5 h>
21

$$$$
>  <compound>
FC(F)(F)c1ccc2nc([C@H]3CCN(C4CCOCC4)C3)[nH]c2c1

>  <unit-descriptor>
%

>  <cytotoxicity at 70.5 h>
-12.9

$$$$
>  <compound>
COCC1CN(Cc2cccnc2)Cc2nnn(CC3CC3)c21 (configuration not stated)

>  <unit-descriptor>
%

>  <cytotoxicity at 70.5 h>
19.4

$$$$
>  <compound>
Cn1cnnc1-c1cncc(NCc2cccc3c2OCO3)c1

>  <unit-descriptor>
%

>  <cytotoxicity at 70.5 h>
-1.67

$$$$

Cited source for all entries: ChEMBL document CHEMBL3507680
